Value source: patent US20070020327A1

# target-under-test: HLA-A*0202 (human)
# protocol-details: competition with 125I-labelled standard peptide for purified HLA, gel filtration
# cond: remark: other sources report otherwise
measured-attribute: IC50 (nM)

a = VLAGGFFLL (modifications not checked) [peptide 1126.10 (PSM.27)]
b = ALFDIESKV (modifications not checked) [peptide 1129.08 (PSM.711)]
query: Of the two listed items, a and b , which carries the larger IC50 figure? Use the label to indicate which entry you chose.
result: b
(b: 0.7 nM, a: 0.2 nM)
